Tested on: DIV14
protocolSummary: qHTS profiling for inhibitors of Plasmodium falciparum proliferation (AID 504749); note: nearly all actives have a fitted effect of over 60% in size
runParameters: P. falciparum in erythrocytes, SYBR Green DNA, 72 h; series mostly up to 12.8 µM
Inconclusive results are not listed. Calls of active or inactive are those of the source. Calls come from the whole dose curve; as a rule, active = well fitted inhibition curve with a large enough effect; inconclusive = small, poorly fitted or top-dose-only effect; inactive = flat fitted curve, though single readings scatter.
Labels: active, inactive

>>> categorylabel("C[C@]12C=CC(=O)C=C1CCC1C2C(O)C[C@]2(C)C1CC[C@]2(O)C(=O)CO (some centres not stated)")
"inactive"
>>> categorylabel("NC(CCC(=O)N[C@@H](CS)C(=O)NCC(=O)O)C(=O)O (some centres not stated)")
"active"
>>> categorylabel("CC(=O)C[C@H](c1ccc([N+](=O)[O-])cc1)c1c(O)c2ccccc2oc1=O")
"inactive"
>>> categorylabel("CC[C@H](Cc1c(I)cc(I)c(N)c1I)C(=O)O")
"inactive"
>>> categorylabel("CCC(=O)O[C@@]1(C(=O)CCl)C(C)CC2C3CCC4=CC(=O)C=C[C@@]4(C)[C@]3(F)C(O)C[C@]21C (some centres not stated)")
"active"
>>> categorylabel("CNC[C@H](O)c1ccc(OC(=O)C(C)(C)C)c(OC(=O)C(C)(C)C)c1")
"inactive"
>>> categorylabel("CC1(C)S[C@@H]2[C@H](NC(=O)[C@@H](N)c3ccccc3)C(=O)N2[C@H]1C(=O)O[C@H]1OC(=O)c2ccccc21")
"inactive"
>>> categorylabel("O=C1OC(CO)C(O)C(O)C1O (configuration not stated)")
"inactive"
>>> categorylabel("CC1=C(C(=O)O)N2C(=O)[C@@H](NC(=O)[C@@H](N)c3ccc(O)cc3)[C@@H]2SC1")
"inactive"
>>> categorylabel("Cc1ncc([N+](=O)[O-])n1C[C@H](O)CCl")
"inactive"
>>> categorylabel("CC(C)(C)NC[C@H](O)COc1cccc2c1CCC(=O)N2")
"inactive"
>>> categorylabel("C=CCOc1ccccc1OC[C@H](O)CNC(C)C")
"inactive"
>>> categorylabel("CC[C@@]12CCCN3CCc4c(n(c5ccccc45)[C@](O)(C(=O)OC)C1)C32 (some centres not stated)")
"inactive"
>>> categorylabel("CC(C)=CCC[C@](C)(O)C1CC=C(C)CC1 (some centres not stated)")
"inactive"
>>> categorylabel("CN[C@H]1[C@@H](O)[C@@H](NC)[C@@H]2O[C@@]3(O)C(=O)C[C@@H](C)O[C@H]3O[C@H]2[C@H]1O")
"inactive"
>>> categorylabel("C[C@H](Oc1ccccc1)C(=O)N[C@@H]1C(=O)N2[C@@H]1SC(C)(C)[C@@H]2C(=O)O")
"inactive"
>>> categorylabel("CN(C/C=C\\c1ccccc1)Cc1cccc2ccccc12")
"inactive"
>>> categorylabel("COc1ccc([C@@H]2CC(=O)c3c(O)cc(O[C@H]4O[C@@H](CO[C@H]5O[C@@H](C)[C@@H](O)[C@@H](O)[C@@H]5O)[C@@H](O)[C@@H](O)[C@@H]4O)cc3O2)cc1O")
"inactive"
>>> categorylabel("CCN[C@@H]1CN(CCCOC)S(=O)(=O)c2sc(S(N)(=O)=O)cc21")
"inactive"
>>> categorylabel("CC1(C)SC2C(N3C(=O)C(c4ccccc4)NC3(C)C)C(=O)N2C1C(=O)O (configuration not stated)")
"inactive"
>>> categorylabel("CO[C@]1(NC(=O)C2SC(=C(C(N)=O)C(=O)O)S2)C(=O)N2C(C(=O)O)=C(CSc3nnnn3C)CS[C@H]21 (some centres not stated)")
"inactive"
>>> categorylabel("Clc1ccc([C@H](Cn2ccnc2)OCc2c(Cl)cccc2Cl)c(Cl)c1")
"active"
>>> categorylabel("C=CC1=C(C(=O)O)N2C(=O)[C@@H](NC(=O)/C(=N\\OCC(=O)O)c3csc(N)n3)[C@@H]2SC1")
"inactive"
>>> categorylabel("C[C@H](CCC(=O)O)[C@H]1CC[C@@H]2[C@@H]3[C@@H](O)C[C@H]4C[C@@H](O)CC[C@@]4(C)[C@H]3CC[C@@]21C")
"inactive"
>>> categorylabel("COC(=O)N/N=C/C1=C[N+](=O)c2ccccc2[N+]1=O")
"inactive"
>>> categorylabel("CC(=O)O[C@H]1C[C@@]2(C)[C@H](C[C@@H](O)[C@H]3[C@@]4(C)CC[C@@H](O)[C@@H](C)[C@H]4CC[C@@]32C)C1=C(CCC=C(C)C)C(=O)O")
"inactive"
>>> categorylabel("C[C@H](C(=O)O)c1cccc(Oc2ccccc2)c1")
"inactive"
>>> categorylabel("CCOC(=O)O[C@@H](C)OC(=O)[C@@H]1N2C(=O)[C@@H](NC(=O)[C@@H](N)c3ccccc3)[C@H]2SC1(C)C")
"inactive"
>>> categorylabel("CN(C)CCCOC1C(C(O)CO)OC2OC(C)(C)O[C@@H]21 (some centres not stated)")
"inactive"
>>> categorylabel("COc1cc(N[C@@H](C)CCCN)c2ncccc2c1")
"active"
>>> categorylabel("COc1ccccc1OC[C@H](O)CO")
"inactive"
>>> categorylabel("COc1c(O[C@H]2O[C@@H](CO)[C@@H](O)[C@@H](O)[C@@H]2O)cc2c(c1OC)-c1ccc(SC)c(=O)cc1[C@H](NC(C)=O)CC2")
"inactive"
>>> categorylabel("CN(C)CCOC(=O)[C@@H](c1ccccc1)C1(O)CCCC1")
"inactive"
>>> categorylabel("O=C1O[C@H](CN2CCOCC2)CN1/N=C\\c1ccc([N+](=O)[O-])o1")
"inactive"
>>> categorylabel("C[C@@H](CNC1CCCCC1)OC(=O)c1ccccc1")
"active"
>>> categorylabel("NC(=O)c1ccc[n+]([C@@H]2O[C@H](COP(=O)([O-])OP(=O)(O)OC[C@H]3O[C@@H](n4cnc5c(N)ncnc54)[C@@H](O)[C@@H]3O)[C@@H](O)[C@@H]2O)c1")
"inactive"
>>> categorylabel("CC[C@H](CO)NCCN[C@@H](CC)CO")
"inactive"

====

testedSystem: Rap guanine nucleotide exchange factor 3 (Homo sapiens)
protocolSummary: Confirmatory qHTS for antagonist of cAMP-regulated guanine nucleotide exchange factor 3 (EPAC1) (AID 1645880); note: nearly all actives have a fitted effect of over 55% in size
runParameters: EPAC1 Rap1B-BODIPY-GDP exchange, fluorescence; series mostly up to 115 µM
Records with an inconclusive call do not appear. Calls of active or inactive are those of the source. The call rests on the fitted dose curve; in most records, active means well fitted inhibition curve with a large enough effect; inconclusive means small, poorly fitted or top-dose-only effect; inactive means no such curve, though single readings can be large or run the other way.
Labels: yes (active), no (inactive)

>>> categorylabel("Cc1onc(-c2c(F)cccc2Cl)c1C(=O)OCC(=O)N(C)c1ccccc1")
"no"
>>> categorylabel("O=C1NN(c2ccccc2)C(=O)/C1=C/c1ccc(Sc2cccc3ccccc23)o1")
"yes"
>>> categorylabel("CCOc1cc(C2C3=C(CC(C)(C)CC3=O)N(CCOC)C3=C2C(=O)CC(C)(C)C3)ccc1O")
"no"
>>> categorylabel("CCOc1cc(/C=N/NC(=O)c2ccc3c(c2)OCCO3)cc(Br)c1O")
"yes"
>>> categorylabel("COc1cc(OC)c2c(-c3ccccc3)cc(=O)oc2c1")
"no"
>>> categorylabel("Cc1nc(SC(C)C(=O)NCC2CCCO2)c2cc(-c3ccccc3)sc2n1 (stereo not drawn)")
"no"
>>> categorylabel("CC(C)c1ccc(N(C(=O)c2csnn2)C(C(=O)NC(C)(C)C)c2cccnc2)cc1 (stereo not drawn)")
"no"
>>> categorylabel("COc1ccc(S(=O)(=O)N2CCOC23CCN(S(=O)(=O)c2cc(F)ccc2F)CC3)cc1")
"no"
>>> categorylabel("Cc1c(C(=O)NCc2ccc(F)cc2)sc(=O)n1Cc1ccccc1F")
"no"
>>> categorylabel("COCCN(CCOC)Cc1cc(=O)oc2cc(C)c(C)cc12")
"no"
>>> categorylabel("Cc1ccc(S(=O)(=O)N2CCN(CC(=O)Nc3ccccc3C(=O)NC3CC3)CC2)cc1")
"no"
>>> categorylabel("COc1cc2ccccc2cc1C(=O)N1CCc2ccccc21")
"no"
>>> categorylabel("COC(=O)c1c(NC(=O)c2c(OC)cccc2OC)sc2c1CCCC2")
"no"
>>> categorylabel("O=C(Nc1cccc(Cl)c1)N(Cc1nc2ccccc2c(=O)[nH]1)Cc1cccs1")
"no"
>>> categorylabel("O=C(/C=C/c1ccco1)c1cccc([N+](=O)[O-])c1")
"yes"
>>> categorylabel("CCOC(=O)c1cc(C(C)(C)C)nc(SC)c1C#N")
"no"
>>> categorylabel("CCCC(=O)Nc1nnc(SCc2cc(=O)c3ccc(C)cc3[nH]2)s1")
"no"
>>> categorylabel("Cn1cc(C(C[N+](=O)[O-])c2ccccc2)c2ccccc21 (stereo not drawn)")
"no"
>>> categorylabel("Cc1cc(Br)c2c(c1)C(O)(N1CCCCC1C)C(=O)N2 (stereo not drawn)")
"no"
>>> categorylabel("CC(=O)c1sc(NC(=O)c2c(F)cccc2F)nc1C")
"no"
>>> categorylabel("O=C1OC(c2ccc3ccccc3c2O)(c2ccc3ccccc3c2O)c2ccccc21")
"yes"
>>> categorylabel("CCc1ccccc1NC(=O)c1oc(=O)c2ccccc2c1-c1ccccc1")
"no"
>>> categorylabel("COc1cccc(C2=NN(C(=O)c3ccco3)C(O)(C(F)(F)F)C2)c1 (stereo not drawn)")
"no"
>>> categorylabel("CCC(=O)Nc1ccc(C(=O)NNC(=O)c2ccc([N+](=O)[O-])cc2)cc1")
"no"
>>> categorylabel("Cc1ccc(CNC(=O)C(=O)NCCC2CCCCN2S(=O)(=O)c2cccs2)cc1 (stereo not drawn)")
"no"
>>> categorylabel("COc1cc(/C=C2\\SC(=S)N(NS(=O)(=O)c3ccc(C)cc3)C2=O)cc(OC)c1OC")
"yes"
>>> categorylabel("CCOC(=O)c1sc2nc(-c3ccco3)c3c(c2c1N)CC(C)(C)OC3")
"yes"
>>> categorylabel("O=C(NS(=O)(=O)c1ccc2ccc(S(=O)(=O)NCCSc3ccccc3)cc2c1)c1cccc2ccccc12")
"yes"
>>> categorylabel("O=C1NC(=Nc2ccccc2Cl)S/C1=C\\c1cccc([N+](=O)[O-])c1O")
"yes"
>>> categorylabel("COc1cccc(/C=C2\\SC(=S)N(C(Cc3ccccc3)C(=O)O)C2=O)c1 (stereo not drawn)")
"yes"
>>> categorylabel("Nc1ncnc2c1nc(Br)n2[C@@H]1O[C@@H]2COP(=O)(O)O[C@H]2[C@H]1O")
"yes"
>>> categorylabel("O=CN1N=C(c2ccccc2)CC1c1ccc(Cl)cc1 (stereo not drawn)")
"no"
>>> categorylabel("O=C1CSC2(C(=O)N(Cc3cccc(C(F)(F)F)c3)c3ccccc32)N1c1ccc(F)c(F)c1 (stereo not drawn)")
"no"
>>> categorylabel("CC(=O)N1N=C(N)SC1c1ccc(Cl)c(Cl)c1 (stereo not drawn)")
"no"
>>> categorylabel("CC(=O)/C(=C/N(C)C)Sc1ccc(C)cc1")
"no"
>>> categorylabel("Cc1ccc(S(=O)(=O)/N=C2/NC(=O)/C(=C\\c3cc(Br)cc(Br)c3O)S2)cc1")
"yes"
>>> categorylabel("Cc1cc(C)c(-c2c(N)cc(Br)cc2Br)c(N)c1")
"no"
>>> categorylabel("N#Cc1cc(C(=O)c2ccccc2O)cn(-c2nccs2)c1=O")
"no"
>>> categorylabel("CC(C)(C)c1ccc(C(CC(=O)O)NC(=O)CSc2ccccc2)cc1 (stereo not drawn)")
"no"
>>> categorylabel("COCC(=O)Oc1c(Sc2ccc(C)cc2)c(C)nn1C(C)(C)C")
"no"
>>> categorylabel("Nc1ccc2c3c(cccc13)-c1ccccc1-2")
"no"
>>> categorylabel("CCc1ccc(-c2nc(CS(=O)CC(=O)NCc3cccnc3)c(C)o2)cc1 (stereo not drawn)")
"no"
>>> categorylabel("COc1ccc(/C=C\\c2onc(C)c2S(=O)(=O)N2CCC(C(=O)NCCC(C)C)CC2)cc1")
"no"
